test: in vivo; parameters: species or system mice; settings: male, athymic nude, mouse, 0.74 MBq, total radioactivity, tumor uptake, biodistribution
recorded-metric: tissue uptake at 0.5 h (%ID/g)
Report as a plain number; the unit %ID/g is understood.

For CSCC[C@H](NC(=O)[C@H](CC(C)C)NC(=O)[C@H](Cc1c[nH]cn1)NC(=O)CNC(=O)[C@@H](NC(=O)[C@H](C)NC(=O)[C@H](Cc1c[nH]c2ccccc12)NC(=O)[C@H](CCC(N)=O)NC(=O)CCCCCNC(=O)CC[C@H](NC(=S)Nc1ccc(C[C@H]2CN(CC(=O)O)CCN(CC(=O)O)CCN2CC(=O)O)cc1)C(=O)NCCCC[C@@H]1NC(=O)[C@@H](Cc2ccc(O)cc2)NC(=O)[C@H](CC(=O)O)NC(=O)CNC(=O)[C@H](CCCNC(=N)N)NC1=O)C(C)C)C(N)=O [^68Ga-NOTA-RGD-BBN, metal not drawn] the molecule record lists tissue uptake at 0.5 h as 5.43

====

assay: in vivo; conditions: mouse, in vivo, iv, 5.5 MBq, total radioactivity, Blood uptake
recorded-metric: tissue uptake at 4 h

Documented tissue uptake at 4 h of CSCC[C@H](NC(=O)[C@H](CC(C)C)NC(=O)[C@H](Cc1c[nH]cn1)NC(=O)CNC(=O)[C@@H](NC(=O)[C@H](C)NC(=O)[C@H](Cc1c[nH]c2ccccc12)NC(=O)[C@H](CCC(N)=O)NC(=O)CCCCCNC(=O)CC[C@H](NC(=S)Nc1ccc(C[C@H]2CN(CC(=O)O)CCN(CC(=O)O)CCN2CC(=O)O)cc1)C(=O)NCCCC[C@@H]1NC(=O)[C@@H](Cc2ccc(O)cc2)NC(=O)[C@H](CC(=O)O)NC(=O)CNC(=O)[C@H](CCCNC(=N)N)NC1=O)C(C)C)C(N)=O [^64Cu-NOTA-RGD-BBN, metal not drawn] : 0.49 %ID/g

Form: compound = CSCC[C@H](NC(=O)[C@H](CC(C)C)NC(=O)[C@H](Cc1c[nH]cn1)NC(=O)CNC(=O)[C@@H](NC(=O)[C@H](C)NC(=O)[C@H](Cc1c[nH]c2ccccc12)NC(=O)[C@H](CCC(N)=O)NC(=O)CCCCCNC(=O)CC[C@H](NC(=O)CN1CCN(CC(=O)O)CCN(CC(=O)O)CCN(CC(=O)O)CC1)C(=O)NCCCC[C@@H]1NC(=O)[C@@H](Cc2ccc(O)cc2)NC(=O)[C@H](CC(=O)O)NC(=O)CNC(=O)[C@H](CCCNC(=N)N)NC1=O)C(C)C)C(N)=O [^64Cu-DOTA-RGD-BBN, metal not drawn] ; tissue uptake at 4 h = 0.45 %ID/g

// field: tissue uptake at 4 h; key: N=C(N)NCCC[C@@H]1NC(=O)[C@H](CCCCNC(=S)Nc2ccc(C[C@H]3CN(CC(=O)O)CCN(CC(=O)O)CCN3CC(=O)O)cc2)NC(=O)[C@@H](Cc2ccc(O)cc2)NC(=O)[C@H](CC(=O)O)NC(=O)CNC1=O [^64Cu-NOTA-RGD, metal not drawn, reference compound] ; value = 0.3 %ID/g

====

test: in vivo; parameters: species or system mice; conditions: male, athymic nude, mouse, 0.74 MBq, total radioactivity, kidney uptake, biodistribution
What tissue uptake at 1 h was measured for each of the following?
Entry rule: numbers only, all in %ID/g.

Form: molecule = CSCC[C@H](NC(=O)[C@H](CC(C)C)NC(=O)[C@H](Cc1c[nH]cn1)NC(=O)CNC(=O)[C@@H](NC(=O)[C@H](C)NC(=O)[C@H](Cc1c[nH]c2ccccc12)NC(=O)[C@H](CCC(N)=O)NC(=O)CCCCCNC(=O)CC[C@H](NC(=O)COCCOCCOCCNC(=O)c1ccc([18F])cc1)C(=O)NCCCC[C@@H]1NC(=O)[C@@H](Cc2ccc(O)cc2)NC(=O)[C@H](CC(=O)O)NC(=O)CNC(=O)[C@H](CCCNC(=N)N)NC1=O)C(C)C)C(N)=O [^18F-FB-PEG3-RGD-BBN] ; tissue uptake at 1 h = 4.87

The reported tissue uptake at 1 h of the molecule CSCC[C@H](NC(=O)[C@H](CC(C)C)NC(=O)[C@H](Cc1c[nH]cn1)NC(=O)CNC(=O)[C@@H](NC(=O)[C@H](C)NC(=O)[C@H](Cc1c[nH]c2ccccc12)NC(=O)[C@H](CCC(N)=O)NC(=O)CCCCCNC(=O)CC[C@H](NC(=S)Nc1ccc(C[C@H]2CN(CC(=O)O)CCN(CC(=O)O)CCN2CC(=O)O)cc1)C(=O)NCCCC[C@@H]1NC(=O)[C@@H](Cc2ccc(O)cc2)NC(=O)[C@H](CC(=O)O)NC(=O)CNC(=O)[C@H](CCCNC(=N)N)NC1=O)C(C)C)C(N)=O [^68Ga-NOTA-RGD-BBN, metal not drawn] was 5.58

====

assay: MicroPET blood and normal organ uptake in T47D and MDA-MB-435 tumor-bearing nude mice; settings: nude, mouse, kidney, iv, total radioactivity, Kidney uptake, average of eight mice, 24 h
recorded-metric: tissue uptake at 24 h
Give the figure together with its unit, number first.

For this molecule ( CSCC[C@H](NC(=O)[C@H](CC(C)C)NC(=O)[C@H](Cc1c[nH]cn1)NC(=O)CNC(=O)[C@@H](NC(=O)[C@H](C)NC(=O)[C@H](Cc1c[nH]c2ccccc12)NC(=O)[C@H](CCC(N)=O)NC(=O)CCCCCNC(=O)CC[C@H](NC(=S)Nc1ccc(C[C@H]2CN(CC(=O)O)CCN(CC(=O)O)CCN2CC(=O)O)cc1)C(=O)NCCCC[C@@H]1NC(=O)[C@@H](Cc2ccc(O)cc2)NC(=O)[C@H](CC(=O)O)NC(=O)CNC(=O)[C@H](CCCNC(=N)N)NC1=O)C(C)C)C(N)=O [^64Cu-NOTA-RGD-BBN, metal not drawn] ), measured tissue uptake at 24 h is 2.1 %ID/g

====

assay: in vivo; conditions: male, athymic nude, mouse, in vivo, iv, 5.5 MBq, total radioactivity, PC-3 tumor uptake with RGD blocking
recorded-metric: tissue uptake at 1 h (%ID/g)
// return numeric value only (unit: %ID/g, not printed)

Summary for this compound, CSCC[C@H](NC(=O)[C@H](CC(C)C)NC(=O)[C@H](Cc1c[nH]cn1)NC(=O)CNC(=O)[C@@H](NC(=O)[C@H](C)NC(=O)[C@H](Cc1c[nH]c2ccccc12)NC(=O)[C@H](CCC(N)=O)NC(=O)CCCCCNC(=O)CC[C@H](NC(=S)Nc1ccc(C[C@H]2CN(CC(=O)O)CCN(CC(=O)O)CCN2CC(=O)O)cc1)C(=O)NCCCC[C@@H]1NC(=O)[C@@H](Cc2ccc(O)cc2)NC(=O)[C@H](CC(=O)O)NC(=O)CNC(=O)[C@H](CCCNC(=N)N)NC1=O)C(C)C)C(N)=O [^64Cu-NOTA-RGD-BBN, metal not drawn] : tissue uptake at 1 h is 1.64

====

For each record, write down the corresponding tissue uptake at 20 h.
assay: in vivo; details: male, athymic nude, mouse, in vivo, iv, 5.5 MBq, total radioactivity, Tumor uptake
Provide a numeric answer, followed by its unit.

Recorded result, CSCC[C@H](NC(=O)[C@H](CC(C)C)NC(=O)[C@H](Cc1c[nH]cn1)NC(=O)CNC(=O)[C@@H](NC(=O)[C@H](C)NC(=O)[C@H](Cc1c[nH]c2ccccc12)NC(=O)[C@H](CCC(N)=O)NC(=O)CCCCCNC(=S)Nc1ccc(C[C@H]2CN(CC(=O)O)CCN(CC(=O)O)CCN2CC(=O)O)cc1)C(C)C)C(N)=O [^64Cu-NOTA-BBN, metal not drawn, reference compound] , tissue uptake at 20 h: 0.44 %ID/g

Per the records, this molecule ( CSCC[C@H](NC(=O)[C@H](CC(C)C)NC(=O)[C@H](Cc1c[nH]cn1)NC(=O)CNC(=O)[C@@H](NC(=O)[C@H](C)NC(=O)[C@H](Cc1c[nH]c2ccccc12)NC(=O)[C@H](CCC(N)=O)NC(=O)CCCCCNC(=O)CC[C@H](NC(=O)CN1CCN(CC(=O)O)CCN(CC(=O)O)CCN(CC(=O)O)CC1)C(=O)NCCCC[C@@H]1NC(=O)[C@@H](Cc2ccc(O)cc2)NC(=O)[C@H](CC(=O)O)NC(=O)CNC(=O)[C@H](CCCNC(=N)N)NC1=O)C(C)C)C(N)=O [^64Cu-DOTA-RGD-BBN, metal not drawn] ) has tissue uptake at 20 h equal to 0.97 %ID/g

molecule N=C(N)NCCC[C@@H]1NC(=O)[C@H](CCCCNC(=S)Nc2ccc(C[C@H]3CN(CC(=O)O)CCN(CC(=O)O)CCN3CC(=O)O)cc2)NC(=O)[C@@H](Cc2ccc(O)cc2)NC(=O)[C@H](CC(=O)O)NC(=O)CNC1=O [^64Cu-NOTA-RGD, metal not drawn, reference compound] , tissue uptake at 20 h observed: 0.55 %ID/g

====

experiment: Octanol/water partition coefficient; assay type: physicochemical; conditions: octanol / PBS pH 7.4, room temperature
recorded-metric: logP
The answer should be a number; do not append a unit.

Measured logP of CSCC[C@H](NC(=O)[C@H](CC(C)C)NC(=O)[C@H](Cc1c[nH]cn1)NC(=O)CNC(=O)[C@@H](NC(=O)[C@H](C)NC(=O)[C@H](Cc1c[nH]c2ccccc12)NC(=O)[C@H](CCC(N)=O)NC(=O)CCCCCNC(=O)c1ccc(F)cc1)C(C)C)C(N)=O [^18F-FB-BBN, reference compound] : 1.49
